Ref: patent US20090047246A1

Reported IC50 by item:
Biological target: HCV NS3 helicase (Hepatitis C virus genotype 1b, UniProt P26663)
Construct: full-length NS3 (1-631), purified at Array BioPharma
Sequence (P26663 1027-1657): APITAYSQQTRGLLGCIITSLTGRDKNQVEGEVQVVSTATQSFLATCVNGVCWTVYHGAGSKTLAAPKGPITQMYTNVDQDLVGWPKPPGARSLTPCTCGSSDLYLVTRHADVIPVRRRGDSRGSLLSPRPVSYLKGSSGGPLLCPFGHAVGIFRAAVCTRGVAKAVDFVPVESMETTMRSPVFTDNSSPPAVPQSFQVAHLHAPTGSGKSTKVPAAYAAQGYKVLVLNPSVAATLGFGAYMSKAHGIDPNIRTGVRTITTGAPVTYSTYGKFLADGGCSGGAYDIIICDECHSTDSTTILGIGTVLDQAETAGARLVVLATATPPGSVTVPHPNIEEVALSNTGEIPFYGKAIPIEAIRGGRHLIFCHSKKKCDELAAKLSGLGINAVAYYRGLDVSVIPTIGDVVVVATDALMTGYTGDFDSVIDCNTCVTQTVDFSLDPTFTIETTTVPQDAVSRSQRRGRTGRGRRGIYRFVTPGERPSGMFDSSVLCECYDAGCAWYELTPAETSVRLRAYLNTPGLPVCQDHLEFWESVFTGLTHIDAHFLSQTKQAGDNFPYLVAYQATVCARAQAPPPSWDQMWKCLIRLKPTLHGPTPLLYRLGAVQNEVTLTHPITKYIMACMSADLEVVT
Assay: HCV Helicase Prompt FRET Assay (Example A)
Format: biochemical
Conditions: HCV NS3 helicase; tables do not say whether Example A or Example B assay; read-out: IC50 Activity

molecule | result
O=C(O)Cc1c(Cc2ccc(-c3ccccc3C(F)(F)F)cc2)[nH]c2ccccc12 [Example 285] | < 10 µM
CCN(c1cccc(Cn2cc(CC(=O)O)c3ccccc32)c1)c1ccccc1C(F)(F)F [Example 553] | 10 to 50 µM
CN(c1ccc(Cl)cc1)c1cccc(Cn2cc(CC(=O)O)c3ccccc32)c1 [Example 525] | < 10 µM
N#CCc1cn(Cc2csc3ccc(Cl)cc23)c2ccc(CNC(=O)c3ccccc3)cc12 [Example 211] | 10 to 50 µM
O=C(O)Cc1cn(-c2ccc(NCc3ccccc3)cc2)c2ccccc12 [Example 161] | < 10 µM

## Task So what does the record say about IC50 for Cc1oncc1C(=O)Nc1ccc(-n2cc(CC(=O)O)c3ccccc32)cc1 [Example 163] ?
## Result 10 to 50 µM

## Task Entry O=C(O)Cc1c(Cc2ccc(-c3cccc(Cl)c3Cl)cc2)[nH]c2ccccc12 [Example 290] : reported IC50 = ?
## Result < 10 µM
